Record form. Attribute: viability decrease. Fill in for each entry.
Test: growth inhibition of GSK3B-pretreated HCT116 cells – cell-based, CellTiter-Glo, 0.2 to 20 µM (AID 1117336)
Conditions: HCT116 viability after GSK3B inhibitor, at 20 µM, stronger effect = higher value
Write the number in % without appending the unit.

Qu. # lookup: viability decrease of CCC(C(=O)OCCN(CC)CC)c1ccccc1 (configuration not stated)
Ans. -8.4

Qu. # lookup: viability decrease of `O=C(O)Cc1ccc2c(c1)C(=O)c1ccccc1CO2`
Ans. -4.5

Qu. # lookup: viability decrease of `NCC(=O)O`
Ans. 1.6

Qu. # lookup: viability decrease of `COC(=O)/C=C\C(=O)OC`
Ans. 8.3

Qu. # lookup: viability decrease of `CCC(CN)=C(c1ccccc1)c1ccccc1`
Ans. 17.9

Qu. # lookup: viability decrease of `CCOc1cc(OCC)c(C(=O)CCC(=O)O)cc1OCC`
Ans. -11.3

Qu. # lookup: viability decrease of `COc1ccc(Cl)cc1C(=O)NCCc1ccc(S(=O)(=O)NC(=O)NC2CCCCC2)cc1`
Ans. 17.8

Qu. # lookup: viability decrease of `CN1CCN(CCCN2c3ccccc3Sc3ccc(C(F)(F)F)cc32)CC1`
Ans. 110

Qu. # lookup: viability decrease of `COc1cc2c(cc1OC)C(=O)CC2`
Ans. -1.6

Qu. # lookup: viability decrease of `NNc1nnc(NN)c2ccccc12`
Ans. -0.85

Qu. # lookup: viability decrease of `Cc1ccc(CCn2c3c(c4cc(Cl)ccc42)CN(C)CC3)cn1`
Ans. 40.3

Qu. # lookup: viability decrease of `CC(=O)O[C@]1(C(C)=O)CC[C@H]2[C@@H]3C=C(C)C4=CC(=O)CC[C@]4(C)[C@H]3CC[C@@]21C`
Ans. -86.9
